Reference for the values: patent US11098018B2

Form field: pIC50 (one value per entry).
- systemTested: human SK3 channel (hKCa0.2.3) (Homo sapiens)
- testDescription: Automated patch clamping (QPatch whole-cell)
- testConditions: HEK-293 cells stably expressing human SK3; free calcium 400 nM; normalized to inhibitory effect of N-methyl bicuculline
pIC50: −log10 of the molar value.

Form field pIC50, entry CNC(=O)CC(Nc1nc2ccccc2[nH]1)c1ccc(Cl)c(C)c1 (centres unmarked) : > 5.00

So, CNC(=O)CC(Nc1nc2ccccc2[nH]1)c1cccc(C(F)(F)F)c1 (single isomer, unassigned; (-)) [Example 2a] ? Its pIC50 was > 5.00

Quick note, pIC50 for CNC(=O)CC(Nc1nc2c(C)cccc2[nH]1)c1cccc(C(F)(F)F)c1 (centres unmarked) landed at > 5.00

// CNC(=O)C(C)(Nc1nc2ccccc2[nH]1)c1cccc(C(F)(F)F)c1 (single isomer, unassigned; (+)) [Example 26a] : pIC50 value = > 5.00

# pIC50 of CON(C)C(=O)CC(Nc1nc2ccccc2[nH]1)c1cccc(C(F)(F)F)c1 (centres unmarked) = > 5.00

// recorded pIC50 for CNC(=O)CC(Nc1nc2ccccc2[nH]1)c1cccc(OC(F)(F)F)c1 (centres unmarked) : > 5.00

Kindly note the recorded pIC50 for CNC(=O)CC(Nc1nc2cc(OC(F)(F)F)ccc2[nH]1)c1cccc(C(F)(F)F)c1 (centres unmarked) , which is > 5.00

So for COC(=O)C(Cc1cccc(C(F)(F)F)c1)Nc1nc2c(NC(C)=O)cccc2[nH]1 (centres unmarked) , the logged pIC50 turned out to be > 5.00

compound CNC(=O)CC(Nc1nc2ccccc2[nH]1)c1cccc(SC)c1 (centres unmarked) , pIC50 observed: > 5.00

Query CNC(=O)C(Cc1cccc(C(F)(F)F)c1)Nc1nc2ccccc2[nH]1 (centres unmarked) yields pIC50 of > 4.00

# pIC50 of CNC(=O)CC(Nc1nc2c(Cl)cccc2[nH]1)c1cccc(C(F)(F)F)c1 (centres unmarked) = > 5.00

pIC50 measured on CNC(=O)CC(Nc1nc2ccccc2[nH]1)c1cccc(C(=O)OC)c1 (centres unmarked) = > 5.00

get_value(item= CNC(=O)C(C)(Nc1nc2ccccc2[nH]1)c1cccc(C(F)(F)F)c1 (centres unmarked) [Example 26, trifluoroacetic acid] , readout=pIC50) returns > 5.00

response.value for CNC(=O)CC(Nc1nc2c(CCO)cccc2[nH]1)c1cccc(C(F)(F)F)c1 (centres unmarked) (field: pIC50) = > 4.00

Reported pIC50 of CNC(=O)CC(Nc1nc2c(COC)cccc2[nH]1)c1cccc(C(F)(F)F)c1 (centres unmarked) : > 5.00
